Test: physchem
Type: physicochemical
Conditions: pH 7.4, aqueous buffer, kinetic from dmso stock
Record form. Attribute: solubility at 24 h. Fill in for each entry.

Quick check: solubility at 24 h of CC[C@H](NC(=O)c1ccc2c(c1)/C(=C(/Nc1ccc(CN3CCCCC3)cc1)c1ccccc1)C(=O)N2)c1ccccc1 [Compound 32] ?
< 10 µM

Also C[C@@H](NC(=O)c1ccc2c(c1)/C(=C(/Nc1ccc(CN3CCN(C)CC3)cc1)c1ccccc1)C(=O)N2)c1ccccc1 [Compound 38] , if possible.
10 to 20 µM

Also C[C@@H](NC(=O)c1ccc2c(c1)/C(=C(/Nc1cccc(CN3CCCCC3)c1)c1ccccc1)C(=O)N2)c1ccccc1 [Compound 13] , if possible.
< 10 µM

Also C[C@@H](NC(=O)c1ccc2c(c1)/C(=C(/Nc1ccc(CN3CCCCC3)cc1)c1ccccc1)C(=O)N2)c1ccc(F)cc1 [Compound 23] , if possible.
< 10 µM

Also Cc1ccc([C@@H](C)NC(=O)c2ccc3c(c2)/C(=C(/Nc2cccc(CN4CCCCC4)c2)c2ccccc2)C(=O)N3)cc1 [Compound 27] , if possible.
< 10 µM

Also COc1cccc(CNC(=O)c2ccc3c(c2)/C(=C(/Nc2ccc(CN4CCN(C)CC4)cc2)c2ccccc2)C(=O)N3)c1 [Compound 40] , if possible.
< 10 µM

Also O=C1Nc2ccc(C(=O)NCc3ccccc3)cc2/C1=C(/Nc1ccc(CN2CCCCC2)cc1)c1ccccc1 [Compound 20] , if possible.
< 10 µM

Also C[C@@H](NC(=O)c1ccc2c(c1)/C(=C(/Nc1ccc(CN3CCN(C)CC3)cc1)c1ccccc1)C(=O)N2)c1cccc(Cl)c1 [Compound 36] , if possible.
< 10 µM

Also COc1cccc([C@@H](C)NC(=O)c2ccc3c(c2)/C(=C(/Nc2ccc(CN4CCN(C)CC4)cc2)c2ccccc2)C(=O)N3)c1 [Compound 35] , if possible.
10 to 20 µM

Also CC[C@@H](NC(=O)c1ccc2c(c1)/C(=C(/Nc1cccc(CN3CCCCC3)c1)c1ccccc1)C(=O)N2)c1ccccc1 [Compound 12] , if possible.
< 10 µM

Also C[C@H](NC(=O)c1ccc2c(c1)/C(=C(/Nc1ccc(CN3CCCCC3)cc1)c1ccccc1)C(=O)N2)c1ccccc1 [Compound 30] , if possible.
< 10 µM

---

System: A549 human lung carcinoma cells
Assay: Cell-based EC50 determination, A549 cells (CellTiter-Glo cell viability)
Details: A549, 24 h, read-out: A549 EC50 24h
METRIC: EC50 (µM)
Reply numerically in µM, unit not repeated.

Quick check: EC50 of "COc1cccc(CNC(=O)c2ccc3c(c2)/C(=C(/Nc2ccc(CN4CCN(C)CC4)cc2)c2ccccc2)C(=O)N3)c1" ?
14.6

Also "C[C@H](NC(=O)c1ccc2c(c1)/C(=C(/Nc1ccc(CN3CCCCC3)cc1)c1ccccc1)C(=O)N2)c1ccccc1" , if possible.
5.98

Also "C[C@@H](NC(=O)c1ccc2c(c1)/C(=C(/Nc1ccc(CN3CCN(C)CC3)cc1)c1ccccc1)C(=O)N2)c1ccccc1" , if possible.
3.67

Also "COc1ccc(CNC(=O)c2ccc3c(c2)/C(=C(/Nc2ccc(CN4CCN(C)CC4)cc2)c2ccccc2)C(=O)N3)cc1OC" , if possible.
18.8

Also "COc1cccc([C@@H](C)NC(=O)c2ccc3c(c2)/C(=C(/Nc2cccc(CN4CCCCC4)c2)c2ccccc2)C(=O)N3)c1" , if possible.
11.8

Also "C[C@@H](NC(=O)c1ccc2c(c1)/C(=C(/Nc1ccc(CN3CCN(C)CC3)cc1)c1ccccc1)C(=O)N2)c1cccc(Cl)c1" , if possible.
1.77

Also "COc1cccc([C@@H](C)NC(=O)c2ccc3c(c2)/C(=C(/Nc2ccc(CN4CCN(C)CC4)cc2)c2ccccc2)C(=O)N3)c1" , if possible.
4.99

Also "Cc1ccc([C@@H](C)NC(=O)c2ccc3c(c2)/C(=C(/Nc2cccc(CN4CCCCC4)c2)c2ccccc2)C(=O)N3)cc1" , if possible.
25.4

---

Tested on: A549 human lung carcinoma cells
Experiment: Cell-based EC50 determination, A549 cells (CellTiter-Glo cell viability)
Conditions: A549, 24 h, read-out: A549 EC50 24h
Mark 1 (yes) for EC50 under 7 µM, 0 (no) if at or over.

Strictly below 7 µM in EC50? "CC[C@@H](NC(=O)c1ccc2c(c1)/C(=C(/Nc1ccc(CN3CCN(C)CC3)cc1)c1ccccc1)C(=O)N2)c1ccccc1"
1 (yes)

Also "CC[C@H](NC(=O)c1ccc2c(c1)/C(=C(/Nc1ccc(CN3CCCCC3)cc1)c1ccccc1)C(=O)N2)c1ccccc1" , if possible.
1 (yes)

Also "COc1cccc([C@@H](C)NC(=O)c2ccc3c(c2)/C(=C(/Nc2ccc(CN4CCCCC4)cc2)c2ccccc2)C(=O)N3)c1" , if possible.
0 (no)

Also "C[C@@H](NC(=O)c1ccc2c(c1)/C(=C(/Nc1cccc(CN3CCCCC3)c1)c1ccccc1)C(=O)N2)c1ccccc1" , if possible.
0 (no)

Also "C[C@@H](NC(=O)c1ccc2c(c1)/C(=C(/Nc1ccc(CN3CCCCC3)cc1)c1ccccc1)C(=O)N2)c1ccc(F)cc1" , if possible.
0 (no)

---

Experiment: physchem
Type: physicochemical
Settings: pH 2, aqueous buffer, kinetic from dmso stock
METRIC: solubility at 24 h

Quick check: solubility at 24 h of COc1ccc([C@@H](C)NC(=O)c2ccc3c(c2)/C(=C(/Nc2ccc(CN4CCCCC4)cc2)c2ccccc2)C(=O)N3)cc1 [Compound 21] ?
100 to 110 µM

Also C[C@H](NC(=O)c1ccc2c(c1)/C(=C(/Nc1ccc(CN3CCCCC3)cc1)c1ccccc1)C(=O)N2)c1ccccc1 [Compound 30] , if possible.
110 to 120 µM

Also CC[C@@H](NC(=O)c1ccc2c(c1)/C(=C(/Nc1ccc(CN3CCN(C)CC3)cc1)c1ccccc1)C(=O)N2)c1ccccc1 [Compound 37] , if possible.
110 to 120 µM

Also COc1cccc(CNC(=O)c2ccc3c(c2)/C(=C(/Nc2ccc(CN4CCN(C)CC4)cc2)c2ccccc2)C(=O)N3)c1 [Compound 40] , if possible.
110 to 120 µM

Also COc1cccc([C@@H](C)NC(=O)c2ccc3c(c2)/C(=C(/Nc2cccc(CN4CCCCC4)c2)c2ccccc2)C(=O)N3)c1 [Compound 24] , if possible.
110 to 120 µM

Also C[C@@H](NC(=O)c1ccc2c(c1)/C(=C(/Nc1ccc(CN3CCCCC3)cc1)c1ccccc1)C(=O)N2)c1ccc(F)cc1 [Compound 23] , if possible.
110 to 120 µM

Also CC[C@@H](NC(=O)c1ccc2c(c1)/C(=C(/Nc1ccc(CN3CCCCC3)cc1)c1ccccc1)C(=O)N2)c1ccccc1 [Compound 18] , if possible.
110 to 120 µM

Also C[C@@H](NC(=O)c1ccc2c(c1)/C(=C(/Nc1cccc(CN3CCCCC3)c1)c1ccccc1)C(=O)N2)c1ccccc1 [Compound 13] , if possible.
110 to 120 µM

Also CC[C@@H](NC(=O)c1ccc2c(c1)/C(=C(/Nc1cccc(CN3CCCCC3)c1)c1ccccc1)C(=O)N2)c1ccccc1 [Compound 12] , if possible.
110 to 120 µM

Also O=C1Nc2ccc(C(=O)NCc3ccccc3)cc2/C1=C(/Nc1ccc(CN2CCCCC2)cc1)c1ccccc1 [Compound 20] , if possible.
110 to 120 µM

Also Cc1ccc([C@@H](C)NC(=O)c2ccc3c(c2)/C(=C(/Nc2cccc(CN4CCCCC4)c2)c2ccccc2)C(=O)N3)cc1 [Compound 27] , if possible.
110 to 120 µM

Also CC[C@H](NC(=O)c1ccc2c(c1)/C(=C(/Nc1ccc(CN3CCCCC3)cc1)c1ccccc1)C(=O)N2)c1ccccc1 [Compound 32] , if possible.
110 to 120 µM

Also C[C@@H](NC(=O)c1ccc2c(c1)/C(=C(/Nc1ccc(CN3CCN(C)CC3)cc1)c1ccccc1)C(=O)N2)c1cccc(Cl)c1 [Compound 36] , if possible.
100 to 110 µM

---

Biological target: UniProt:Q07912
Sequence (Q07912 whole entry): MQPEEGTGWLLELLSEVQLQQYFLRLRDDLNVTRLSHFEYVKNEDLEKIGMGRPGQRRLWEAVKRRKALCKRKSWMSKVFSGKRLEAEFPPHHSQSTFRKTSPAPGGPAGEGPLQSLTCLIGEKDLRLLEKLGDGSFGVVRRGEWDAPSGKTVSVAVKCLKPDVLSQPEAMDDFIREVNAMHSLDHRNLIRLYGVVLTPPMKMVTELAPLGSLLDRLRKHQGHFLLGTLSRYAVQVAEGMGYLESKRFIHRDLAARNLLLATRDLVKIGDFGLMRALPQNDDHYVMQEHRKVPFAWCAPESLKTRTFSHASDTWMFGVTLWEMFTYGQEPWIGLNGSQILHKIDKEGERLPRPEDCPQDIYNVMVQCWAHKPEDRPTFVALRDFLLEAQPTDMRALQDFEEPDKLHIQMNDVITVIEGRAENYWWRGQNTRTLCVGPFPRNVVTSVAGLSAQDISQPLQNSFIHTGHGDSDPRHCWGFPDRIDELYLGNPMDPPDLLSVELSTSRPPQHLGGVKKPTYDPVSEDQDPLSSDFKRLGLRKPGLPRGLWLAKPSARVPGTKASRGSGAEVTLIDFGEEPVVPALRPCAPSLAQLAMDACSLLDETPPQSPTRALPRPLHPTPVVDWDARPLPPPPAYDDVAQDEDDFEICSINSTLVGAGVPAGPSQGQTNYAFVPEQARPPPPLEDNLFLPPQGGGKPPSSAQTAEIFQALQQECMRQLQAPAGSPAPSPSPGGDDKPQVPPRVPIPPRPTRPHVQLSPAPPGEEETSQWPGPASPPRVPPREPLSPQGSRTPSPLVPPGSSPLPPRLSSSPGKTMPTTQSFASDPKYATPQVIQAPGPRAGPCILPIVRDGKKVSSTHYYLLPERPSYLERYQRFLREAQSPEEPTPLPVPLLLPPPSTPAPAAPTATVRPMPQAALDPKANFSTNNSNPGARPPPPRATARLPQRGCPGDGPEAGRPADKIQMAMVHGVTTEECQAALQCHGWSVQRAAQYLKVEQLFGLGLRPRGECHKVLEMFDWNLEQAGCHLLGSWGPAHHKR
Experiment: In vitro Ack1 assay (TranScreener ADP2 FP, generation of ADP)
Assay type: biochemical
Details: 12.5 uM compound; 3.5 µM ATP; read-out: Ack1 inh% @12.5 uM
Experimental: The activity of the compounds described in the present invention can be determined by the following kinase assay, which measures the generation of ADP by human Ack1 kinase by fluorescent polarization using a commercially available TranScreener ADP2 FP Assay Kit (BellBrook Labs). Ack1 kinase assays were performed in low protein binding 384-well plates (Corning). […]
The threshold is inclusive: inhibition at 12.5 µM of exactly 80% counts as rule met; values below receive rule not met.

Please tell me: is the compound "CC[C@@H](NC(=O)c1ccc2c(c1)/C(=C(/Nc1ccc(CN3CCCCC3)cc1)c1ccccc1)C(=O)N2)c1ccccc1" at or over 80% in terms of inhibition at 12.5 µM?
rule met

Also "CC[C@@H](NC(=O)c1ccc2c(c1)/C(=C(/Nc1cccc(CN3CCCCC3)c1)c1ccccc1)C(=O)N2)c1ccccc1" , if possible.
rule not met

Also "C[C@@H](NC(=O)c1ccc2c(c1)/C(=C(/Nc1ccc(CN3CCCCC3)cc1)c1ccccc1)C(=O)N2)c1ccc(F)cc1" , if possible.
rule met

Also "Cc1ccc([C@@H](C)NC(=O)c2ccc3c(c2)/C(=C(/Nc2cccc(CN4CCCCC4)c2)c2ccccc2)C(=O)N3)cc1" , if possible.
rule not met

Also "COc1cccc([C@@H](C)NC(=O)c2ccc3c(c2)/C(=C(/Nc2cccc(CN4CCCCC4)c2)c2ccccc2)C(=O)N3)c1" , if possible.
rule not met
